- study-target: human Nav1.8/β1 (Homo sapiens, UniProt Q9Y5Y9)
- Construct: host or cells: HEK293
- Sequence (Q9Y5Y9 whole entry): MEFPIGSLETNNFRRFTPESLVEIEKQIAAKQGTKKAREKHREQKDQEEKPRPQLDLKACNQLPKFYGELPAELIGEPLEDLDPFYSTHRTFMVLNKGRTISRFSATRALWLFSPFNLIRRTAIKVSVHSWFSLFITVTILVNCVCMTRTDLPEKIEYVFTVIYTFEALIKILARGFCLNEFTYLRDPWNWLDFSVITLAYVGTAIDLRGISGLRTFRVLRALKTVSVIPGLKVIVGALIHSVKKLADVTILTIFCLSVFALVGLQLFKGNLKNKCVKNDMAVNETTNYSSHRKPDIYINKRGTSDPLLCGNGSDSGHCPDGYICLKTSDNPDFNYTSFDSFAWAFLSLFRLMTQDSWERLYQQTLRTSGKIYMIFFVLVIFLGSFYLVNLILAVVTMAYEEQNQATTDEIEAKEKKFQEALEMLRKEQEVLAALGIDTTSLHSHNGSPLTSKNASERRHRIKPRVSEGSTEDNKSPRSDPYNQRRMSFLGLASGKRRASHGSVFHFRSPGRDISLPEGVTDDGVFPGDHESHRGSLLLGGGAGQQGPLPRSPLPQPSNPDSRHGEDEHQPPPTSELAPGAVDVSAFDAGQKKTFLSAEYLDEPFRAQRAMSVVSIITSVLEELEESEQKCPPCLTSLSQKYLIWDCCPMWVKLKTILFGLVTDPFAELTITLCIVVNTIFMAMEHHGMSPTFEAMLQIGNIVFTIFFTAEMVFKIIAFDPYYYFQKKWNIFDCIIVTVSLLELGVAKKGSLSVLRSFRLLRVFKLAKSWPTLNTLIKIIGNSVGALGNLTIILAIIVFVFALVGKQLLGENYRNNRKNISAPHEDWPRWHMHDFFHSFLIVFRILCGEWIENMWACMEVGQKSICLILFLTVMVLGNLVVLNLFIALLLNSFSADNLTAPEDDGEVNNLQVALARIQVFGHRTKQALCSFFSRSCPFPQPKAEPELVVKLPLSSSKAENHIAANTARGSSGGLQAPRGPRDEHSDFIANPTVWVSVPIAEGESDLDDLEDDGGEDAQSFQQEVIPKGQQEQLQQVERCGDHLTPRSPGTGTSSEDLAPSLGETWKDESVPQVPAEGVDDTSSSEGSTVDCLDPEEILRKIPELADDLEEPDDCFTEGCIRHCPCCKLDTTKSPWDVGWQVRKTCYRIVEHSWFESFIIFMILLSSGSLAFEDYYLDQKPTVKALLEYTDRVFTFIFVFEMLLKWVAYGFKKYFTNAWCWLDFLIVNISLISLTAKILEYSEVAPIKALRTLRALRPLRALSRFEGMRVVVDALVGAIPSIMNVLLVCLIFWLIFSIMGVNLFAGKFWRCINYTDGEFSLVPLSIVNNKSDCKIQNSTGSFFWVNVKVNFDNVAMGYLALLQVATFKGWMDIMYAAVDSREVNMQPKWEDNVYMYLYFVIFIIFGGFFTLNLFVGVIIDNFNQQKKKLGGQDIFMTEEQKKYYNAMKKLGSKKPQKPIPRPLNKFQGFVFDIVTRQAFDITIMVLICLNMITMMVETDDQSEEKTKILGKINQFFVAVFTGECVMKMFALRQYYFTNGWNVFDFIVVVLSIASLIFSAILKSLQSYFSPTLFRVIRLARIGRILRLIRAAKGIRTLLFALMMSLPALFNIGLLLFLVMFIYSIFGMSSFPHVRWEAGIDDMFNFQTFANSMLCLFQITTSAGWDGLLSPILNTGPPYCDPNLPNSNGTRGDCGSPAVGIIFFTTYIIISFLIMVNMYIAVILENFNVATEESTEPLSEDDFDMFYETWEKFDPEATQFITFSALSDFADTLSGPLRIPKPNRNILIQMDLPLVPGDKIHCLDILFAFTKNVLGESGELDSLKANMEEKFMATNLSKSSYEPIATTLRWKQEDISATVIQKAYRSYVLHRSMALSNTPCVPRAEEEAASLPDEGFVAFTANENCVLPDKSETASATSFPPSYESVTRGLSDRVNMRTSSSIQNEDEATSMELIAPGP
- Sequence (Q07699 19-218 partner): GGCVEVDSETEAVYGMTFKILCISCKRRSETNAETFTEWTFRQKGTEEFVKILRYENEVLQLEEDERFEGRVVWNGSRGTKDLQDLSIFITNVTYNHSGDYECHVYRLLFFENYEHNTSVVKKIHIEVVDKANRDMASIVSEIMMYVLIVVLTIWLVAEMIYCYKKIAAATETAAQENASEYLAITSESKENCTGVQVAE
- assay-procedure: Compound Profiling Human NaV1.8/β1 Cell Line—Sophion QPatch II Assay (automated patch clamp, stably transfected HEK293 cells)
- Type: cell-based
- applied-conditions: P1, resting state block; Nav1.8/β1 HEK293 cells, holding potential −120 mV; first set of compounds; read-out: P1 (IC50, resting state block)
reported-endpoint: IC50

{"columns": ["compound", "result-value"],
 "data": [
  ["Cc1cc(F)ncc1Oc1cc(C(F)(F)F)c(Cl)cc1C(=O)Nc1ccnc([S@](C)(=N)=O)c1 [Example 20A]", "100 to 200 nM"],
  ["COc1cc(Br)ccc1Oc1cc(C(F)(F)F)c(Cl)cc1C(=O)Nc1ccnc([S@@](C)(=N)=O)c1 [Example 16A]", "< 5 nM"],
  ["COc1cc(C#N)ccc1Oc1cc(C(F)(F)F)c(Cl)cc1C(=O)Nc1ccnc([S@@](C)(=N)=O)c1 [Example 15A]", "5 to 50 nM"],
  ["Cc1cc(F)ncc1Oc1cc(C(F)(F)F)c(Cl)cc1C(=O)Nc1ccnc([S@@](C)(=N)=O)c1 [Example 19A]", "> 200 nM"],
  ["Cc1cc(F)ncc1Oc1cc(C(F)(F)F)c(Cl)cc1C(=O)Nc1cccc([S@](C)(=N)=O)c1 [Example 22A]", "50 to 100 nM"],
  ["Cc1cc(F)ncc1Oc1cc(C(F)(F)F)c(Cl)cc1C(=O)Nc1ccc(F)c([S@@](C)(=N)=O)c1 [Example 23A]", "> 200 nM"],
  ["Cc1nc(F)ccc1Oc1cc(C(F)(F)F)ccc1C(=O)Nc1ccnc([S@@](C)(=N)=O)c1 [Example 18A]", "> 200 nM"],
  ["COc1cc(Br)ccc1Oc1cc(C(F)(F)F)c(Cl)cc1C(=O)Nc1ccnc([S@](C)(=N)=O)c1 [Example 11A]", "< 5 nM"],
  ["Cc1cc(F)ncc1Oc1cc(C(F)(F)F)c(Cl)cc1C(=O)Nc1cccc([S@@](C)(=N)=O)c1 [Example 21A]", "100 to 200 nM"]
]}

---

- study-target: human Nav1.8/b3 (Homo sapiens, UniProt Q9Y5Y9)
- Construct: expressed in transfected cells; host or cells: CHO
- Sequence (Q9Y5Y9 whole entry): as the sequence (Q9Y5Y9 whole entry) above
- Sequence (Q9NY72 23-215 partner): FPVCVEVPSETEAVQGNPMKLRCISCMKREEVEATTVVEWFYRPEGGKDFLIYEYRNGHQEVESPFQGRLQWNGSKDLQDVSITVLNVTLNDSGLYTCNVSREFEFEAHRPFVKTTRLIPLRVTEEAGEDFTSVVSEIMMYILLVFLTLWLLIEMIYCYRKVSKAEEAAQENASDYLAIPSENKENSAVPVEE
- assay-procedure: Compound Profiling Human NaV1.8/β3 Cell Line—SyncroPatch384PE Assay (automated patch clamp, stably transfected CHO cells)
- Assay type: cell-based
- applied-conditions: P1 (IC50, resting state block), P1 measurement, resting state block; Nav1.8/b3 CHO cells, holding potential −120 mV; third set of compounds
pIC50: −log10 of the molar value.
reported-endpoint: pIC50

{"columns": ["compound", "reported-endpoint", "result-value"],
 "data": [
  ["COc1cc(C#N)ccc1Oc1ncc(C(F)(F)F)c(C)c1C(=O)Nc1cccc([S@](C)(=N)=O)c1", "pIC50", "> 8.30"],
  ["COc1cc(C#N)ccc1Oc1ncc(-c2ccc(C(F)F)cc2)c(C)c1C(=O)Nc1ccnc(S(C)(=N)=O)c1 (stereo not drawn) [Example 125C]", "pIC50", "< 6.70"],
  ["Cc1nc(F)ccc1Oc1ncc(C(F)(F)F)c(C)c1C(=O)Nc1cccc(S(C)(=O)=O)c1 [Example 123C]", "pIC50", "> 8.30"],
  ["Cc1nc(F)ccc1Oc1nc(C(F)(F)F)c(Cl)c(C)c1C(=O)Nc1cccc([S@](C)(=N)=O)c1 [Example 35C]", "pIC50", "> 8.30"],
  ["Cc1nc(F)ccc1Oc1cnc(C(F)(F)F)c(F)c1C(=O)Nc1cccc([S@](C)(=N)=O)c1 [Example 110C]", "pIC50", "7.30 to 8.30"],
  ["Cc1nc(F)ccc1Oc1ncc(C(F)(F)F)c(C)c1C(=O)Nc1ccc(F)c(S(C)(=O)=NCCN)c1 (stereo not drawn) [Example 88C]", "pIC50", "> 8.30"],
  ["Cc1nc(F)ccc1Oc1ncc(C(F)(F)F)c(C)c1C(=O)Nc1ccc(F)c([S+](C)[O-])c1 (stereo not drawn) [Example 102C]", "pIC50", "7.30 to 8.30"],
  ["Cc1nc(F)ccc1Oc1nnc(C(F)(F)F)c(C)c1C(=O)Nc1cccc(S(N)(=O)=O)c1 [Example 13C]", "pIC50", "> 8.30"],
  ["Cc1nc(F)ccc1Oc1nc(C(F)(F)F)c(Cl)c(C)c1C(=O)Nc1ccnc([S@](C)(=N)=O)c1 [Example 100C]", "pIC50", "7.30 to 8.30"],
  ["COc1cc(C#N)ccc1Oc1ncc(-c2cnn(C)c2)c(C)c1C(=O)Nc1cccc([S@](C)(=N)=O)c1", "pIC50", "7.00 to 7.30"],
  ["Cc1nc(F)ccc1Oc1nc(C2CC2)c(C(F)(F)F)c(C)c1C(=O)Nc1ccnc([S@@](C)(=N)=O)c1 [Example 105C]", "pIC50", "> 8.30"],
  ["Cc1nc(F)ccc1Oc1nc2ccccc2cc1C(=O)Nc1ccnc([S@](C)(=N)=O)c1 [Example 93C]", "pIC50", "6.70 to 7.00"],
  ["Cc1nc(F)ccc1Oc1nc(C(F)(F)F)c(Cl)c(C)c1C(=O)Nc1ccc(F)c([S@](C)(=N)=O)c1 [Example 95C]", "pIC50", "> 8.30"],
  ["Cc1nc(F)ccc1Oc1ncc(C2CCCC2)c(C)c1C(=O)Nc1cccc([S@](C)(=N)=O)c1 [Example 87C]", "pIC50", "7.30 to 8.30"],
  ["Cc1nc(F)ccc1Oc1ncc(C(C)C)c(C)c1C(=O)Nc1cccc([S@](C)(=N)=O)c1 [Example 104C]", "pIC50", "7.00 to 7.30"]
]}
